- ASSAYED_TARGET: ScRvs167
- ASSAY_REMARKS: SPOT peptide array binding signal intensity (averaged, normalized) (arbitrary units (background-subtracted, floor 0; scale differs between SH3 domains)); higher = stronger binding of the SH3 domain to the peptide
PARAMETER_MEASURED: SPOT peptide array binding signal intensity
Number only, no unit.

BINDER | READING
ATKSASPTLPTRRSR | 1320
KRKRFNLLLPKPYLT | 5
LRIKRKPVQTFFEFI | 24.2
QLLNPNRRAPRRPLS | 93.5
PAPPPPPRASRPTPN | 966

Look up and report measured SPOT peptide array binding signal intensity for this entry: `VPPVPLPFGIPPFPM`
0.333

Look up and report measured SPOT peptide array binding signal intensity for this entry: `PSTMDFPKLPSFQNS`
11.3

Look up and report measured SPOT peptide array binding signal intensity for this entry: `KTKQQKPAIPQKKSF`
4.67

Look up and report measured SPOT peptide array binding signal intensity for this entry: `STPQTMRQAPKRPDA`
39.7

Look up and report measured SPOT peptide array binding signal intensity for this entry: `QLMKNLPKIPLLNDI`
5

Look up and report measured SPOT peptide array binding signal intensity for this entry: `EVTPKVPERPSRRKT`
924

Look up and report measured SPOT peptide array binding signal intensity for this entry: `LASNSPPVYPKRIRH`
7.67

Look up and report measured SPOT peptide array binding signal intensity for this entry: `GRSRLFPHSPLGRSS`
12.3
